Would you kindly list FICx for each of these molecules?
Tested on: GN52 Acinetobacter baumannii levofloxacin resistant clinical isolate
assay_summary: Chequerboard synergy with polymyxin B, FICI (Example 6)
Assay type: cell-based
Please state the value as a number alone, without comment.

# query: FICx of entry C[C@H]1COc2c(N3CCN(C)CC3)c(F)cc3c(=O)c(C(=O)O)cn1c23 [Levofloxacin, reference compound]
0.13

Field request: FICx | item: Cc1c(-c2ccc(N)nc2)ccn2c(=O)c(C(=O)O)cc(C3CC3)c12
0.25

Can you share its FICx? I mean this molecule: Cc1c(-c2ccc3[nH]ncc3c2)ccn2c(=O)c(C(=O)O)cc(C3CC3)c12
0.25

# input molecule: Cc1c(-c2cc(F)c(N)cc2F)ccn2c(=O)c(C(=O)O)cc(C3CC3)c12 ; wanted: its FICx
0.25

---

Tested on: Acinetobacter sp. (H064200250)
assay_summary: Preliminary MBC without and with sub-inhibitory polymyxin B (Example 4)
Format: cell-based
details: Acinetobacter, Acinetobacter spp. H064200250 (OXA51); +[…] PB; preliminary MBC; 2nd experiment; read-out: MBC
test_readout: log10 of MBC (log10 of the value in µg/mL)
Scale type: logarithmic (base 10). Underlying MBC unit: µg/mL.

Suppose we examine the compound C[C@@H](O)[C@H]1C(=O)N2C(C(=O)O)=C(S[C@@H]3CN[C@H](C(=O)N(C)C)C3)[C@H](C)[C@H]12 ; what log10 of MBC value has been reported?
-0.60

What log10 of MBC value was documented for this compound, Cc1c(-c2ccc(CN)c(F)c2)ccn2c(=O)c(C(=O)O)cc(C3CC3)c12 ?
-0.30

Sample Cc1c(-c2cc(F)c(N)cc2F)ccn2c(=O)c(C(=O)O)cc(C3CC3)c12 — what was its log10 of MBC?
-1.22

Form field: reported log10 of MBC of Cc1c(-c2cc(Cl)c(N)c(Cl)c2)ccn2c(=O)c(C(=O)O)cc(C3CC3)c12
-1.22

// query log10 of MBC value for entry NCC[C@H](O)C(=O)N[C@@H]1C[C@H](N)[C@@H](O[C@H]2O[C@H](CN)[C@@H](O)[C@H](O)[C@H]2O)[C@H](O)[C@H]1O[C@H]1O[C@H](CO)[C@@H](O)[C@H](N)[C@H]1O [Amikacin, reference compound]
0.00

Endpoint output: log10 of MBC of Cc1c(-c2ccc(N)cc2)ccn2c(=O)c(C(=O)O)cc(C3CC3)c12 . Value?
-0.90

Give the measured log10 of MBC of C[C@H]1COc2c(N3CCN(C)CC3)c(F)cc3c(=O)c(C(=O)O)cn1c23 [Levofloxacin, reference compound] .
0.90

---

Kindly state MBC for each of the entries shown.
System: A. baumannii ATCC 19606
assay_summary: Preliminary MBC without and with sub-inhibitory polymyxin B (Example 4)
Type: cell-based, Acinetobacter baumannii
details: Acinetobacter baumannii, ATCC19606, A. baumannii ATCC 19606, +0.06 μg/ml PB, 2nd experiment, read-out: MBC
Your answer should be a plain number; it is taken to be in µg/mL.

Need MBC of Cc1c(-c2ccc(CN)cc2)c(F)cn2c(=O)c(C(=O)O)cc(C3CC3)c12 [Compound 6] , thanks.
0.06

Name the reported MBC value associated with the compound NCC[C@H](O)C(=O)N[C@@H]1C[C@H](N)[C@@H](O[C@H]2O[C@H](CN)[C@@H](O)[C@H](O)[C@H]2O)[C@H](O)[C@H]1O[C@H]1O[C@H](CO)[C@@H](O)[C@H](N)[C@H]1O [Amikacin, reference compound]
8

Fill in the blank: the reported MBC of Cc1c(-c2ccc(CN)cc2)ccn2c(=O)c(C(=O)O)cc(C3CC3)c12 [Compound 5] is ____.
0.06

Which MBC is reported for this compound? C[C@@H](O)[C@H]1C(=O)N2C(C(=O)O)=C(S[C@@H]3CN[C@H](C(=O)N(C)C)C3)[C@H](C)[C@H]12 [Meropenem]
2
